Cited source: paper PMC11094307

target: EGFR extracellular ligand binding domain (Homo sapiens); construct: His; purchased Sinobiological, China; experiment: SPR EGF competition experiments; conditions: in the presence of EGF 2.5 nM; read-out: KD for EGFR extracellular ligand binding domain
Endpoint Name: pKd
Kindly note that pKd refers to -log10 of the concentration in mol/L and answer with the value alone.

[in] Output pKd of CC[C@@H](C)[C@H]1C=C[C@H]2[C@H](O)[C@H](OC(=O)/C=C(\C)CC(=O)O)C[C@@H](C)[C@@H]2[C@@]1(C)C(=O)CCO [Trichoharzin]
[out] 4.58

###

molecular target: EGFR extracellular ligand binding domain (Homo sapiens, UniProt P00533); construct: His; purchased Sinobiological, China; assay: SPR EGF competition experiments; settings: EGF 2.5 nM, Figure 4H; read-out: KD
Sequence (P00533 25-645 limits assumed): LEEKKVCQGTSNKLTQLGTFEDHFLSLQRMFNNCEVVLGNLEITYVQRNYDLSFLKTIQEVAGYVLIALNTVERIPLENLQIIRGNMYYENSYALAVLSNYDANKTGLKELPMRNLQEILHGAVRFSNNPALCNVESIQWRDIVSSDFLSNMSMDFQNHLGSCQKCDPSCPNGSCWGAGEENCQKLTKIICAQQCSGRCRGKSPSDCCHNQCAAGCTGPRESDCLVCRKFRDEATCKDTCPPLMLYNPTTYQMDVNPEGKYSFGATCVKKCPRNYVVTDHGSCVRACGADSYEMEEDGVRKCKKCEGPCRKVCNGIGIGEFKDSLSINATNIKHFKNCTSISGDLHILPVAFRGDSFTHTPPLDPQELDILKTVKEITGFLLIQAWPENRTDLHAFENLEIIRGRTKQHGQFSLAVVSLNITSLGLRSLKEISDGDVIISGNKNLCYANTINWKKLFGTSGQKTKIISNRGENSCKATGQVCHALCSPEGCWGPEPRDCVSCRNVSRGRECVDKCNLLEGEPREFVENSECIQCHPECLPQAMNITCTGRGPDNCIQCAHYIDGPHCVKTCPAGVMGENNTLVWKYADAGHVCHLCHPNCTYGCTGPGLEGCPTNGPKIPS
Endpoint Name: Kd (µM)
Provide only the numeric value, understood in µM.

[in] Recall and state the measured Kd for `CC[C@@H](C)[C@H]1C=C[C@H]2[C@H](O)[C@H](OC(=O)/C=C(\C)CC(=O)O)C[C@@H](C)[C@@H]2[C@@]1(C)C(=O)CCO` .
[out] 26.2

###

biological target: EGFR extracellular ligand binding domain (Homo sapiens, UniProt P00533); construct: His; purchased Sinobiological, China; assay: SPR EGF competition experiments; conditions: in the presence of EGF 10 nM; read-out: KD for EGFR extracellular ligand binding domain
Endpoint Name: pKd
In textbook form, pKd equals minus log to base ten of the concentration in mol/L.

[in] Output measured pKd for this item: CC[C@@H](C)[C@H]1C=C[C@H]2[C@H](O)[C@H](OC(=O)/C=C(\C)CC(=O)O)C[C@@H](C)[C@@H]2[C@@]1(C)C(=O)CCO [Trichoharzin]
[out] 4.39

###

target: FGFR1 (Homo sapiens, UniProt P11362)
Sequence (P11362 22-822): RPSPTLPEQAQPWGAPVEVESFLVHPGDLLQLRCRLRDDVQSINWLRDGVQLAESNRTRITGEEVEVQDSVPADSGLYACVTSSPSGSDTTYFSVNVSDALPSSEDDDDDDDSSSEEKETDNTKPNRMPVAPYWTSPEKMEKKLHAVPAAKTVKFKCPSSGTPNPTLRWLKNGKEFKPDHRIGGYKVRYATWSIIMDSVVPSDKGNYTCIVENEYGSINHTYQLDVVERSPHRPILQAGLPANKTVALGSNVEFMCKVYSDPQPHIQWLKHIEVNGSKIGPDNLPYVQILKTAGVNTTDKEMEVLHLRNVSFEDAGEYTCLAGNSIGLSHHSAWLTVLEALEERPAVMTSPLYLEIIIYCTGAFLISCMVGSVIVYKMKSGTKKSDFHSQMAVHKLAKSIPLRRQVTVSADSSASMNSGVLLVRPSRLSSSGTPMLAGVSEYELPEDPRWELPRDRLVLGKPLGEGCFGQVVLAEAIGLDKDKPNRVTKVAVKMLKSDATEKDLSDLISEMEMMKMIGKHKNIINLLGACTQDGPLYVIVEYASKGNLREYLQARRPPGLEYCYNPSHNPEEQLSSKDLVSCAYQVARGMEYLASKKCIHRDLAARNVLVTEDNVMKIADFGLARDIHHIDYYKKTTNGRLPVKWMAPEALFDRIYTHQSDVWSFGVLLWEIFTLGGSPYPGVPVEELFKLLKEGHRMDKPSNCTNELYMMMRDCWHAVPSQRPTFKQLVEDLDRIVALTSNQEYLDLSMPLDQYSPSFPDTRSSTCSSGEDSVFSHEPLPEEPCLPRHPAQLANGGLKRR
Endpoint Name: IC50

[in] Give the reported IC50 for this molecule. COC(=O)C/C(C)=C/C(=O)O[C@@H]1C[C@@H](C)[C@H]2[C@@H](C=C[C@H](CC(C)C)[C@]2(C)C(=O)/C=C\O)[C@@H]1O [Tandyukisin]
[out] > 100 µM

###

target: EGFR L858R (Homo sapiens, UniProt P00533, L858R); construct: purchased Promega Corporation, USA; experiment: Kinase inhibition assay (ADP-Glo, Promega); type: biochemical
Sequence (P00533 25-1210 L858R): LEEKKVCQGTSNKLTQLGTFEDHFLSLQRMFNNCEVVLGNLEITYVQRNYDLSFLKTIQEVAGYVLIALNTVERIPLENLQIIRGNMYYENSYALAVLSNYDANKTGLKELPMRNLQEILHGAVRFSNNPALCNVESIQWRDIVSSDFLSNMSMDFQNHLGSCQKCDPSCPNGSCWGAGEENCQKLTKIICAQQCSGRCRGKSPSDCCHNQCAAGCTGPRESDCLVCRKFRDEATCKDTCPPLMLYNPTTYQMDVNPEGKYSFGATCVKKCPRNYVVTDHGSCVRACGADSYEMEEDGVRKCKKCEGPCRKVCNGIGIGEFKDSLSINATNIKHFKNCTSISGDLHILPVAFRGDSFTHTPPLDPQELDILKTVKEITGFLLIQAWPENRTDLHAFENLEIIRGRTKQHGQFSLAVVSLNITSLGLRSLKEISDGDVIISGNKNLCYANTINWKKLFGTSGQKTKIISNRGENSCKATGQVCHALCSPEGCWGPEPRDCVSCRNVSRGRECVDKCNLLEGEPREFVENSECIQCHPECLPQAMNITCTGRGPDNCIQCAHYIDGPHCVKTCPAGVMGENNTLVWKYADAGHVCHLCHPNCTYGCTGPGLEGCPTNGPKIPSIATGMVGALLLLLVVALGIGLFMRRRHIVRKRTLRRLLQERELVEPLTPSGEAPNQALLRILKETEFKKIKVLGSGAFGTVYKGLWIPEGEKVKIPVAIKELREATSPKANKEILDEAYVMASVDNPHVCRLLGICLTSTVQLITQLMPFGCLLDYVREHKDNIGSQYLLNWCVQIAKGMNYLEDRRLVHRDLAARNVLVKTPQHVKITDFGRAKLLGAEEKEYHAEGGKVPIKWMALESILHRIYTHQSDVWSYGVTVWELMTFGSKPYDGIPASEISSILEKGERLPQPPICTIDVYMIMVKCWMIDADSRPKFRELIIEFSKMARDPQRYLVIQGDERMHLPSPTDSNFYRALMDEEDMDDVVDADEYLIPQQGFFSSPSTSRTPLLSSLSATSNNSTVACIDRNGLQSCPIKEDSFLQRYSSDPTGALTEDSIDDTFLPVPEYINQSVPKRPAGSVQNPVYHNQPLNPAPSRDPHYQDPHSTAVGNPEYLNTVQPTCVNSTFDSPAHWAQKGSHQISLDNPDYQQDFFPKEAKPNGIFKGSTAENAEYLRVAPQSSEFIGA
This section presents molecules with their documented pIC50 values.
Expect pIC50 as a plain number equal to -log10 of the molar concentration.

CC[C@@H](C)[C@H]1C=C[C@H]2[C@H](OC(=O)C/C(C)=C\C(=O)O)[C@H](O)C[C@@H](C)[C@@H]2[C@@]1(C)C(=O)CCO | 8.52

Could you now consider this next molecule?
[in] Look up EGFR L858R (Homo sapiens, UniProt P00533, L858R) data: pIC50 of `CC[C@@H](C)[C@H]1C=C[C@H]2[C@H](O)[C@H](OC(=O)/C=C(\C)CC(=O)O)C[C@@H](C)[C@@H]2[C@@]1(C)C(=O)CCO` , then report it.
[out] 8.55

###

target: WT EGFR (Homo sapiens); construct: purchased Promega Corporation, USA; assay: Kinase inhibition assay (ADP-Glo, Promega); type: biochemical; conditions: in vitro kinase assay; read-out: IC50 against WT EGFR
Sequence (P00533 25-1210): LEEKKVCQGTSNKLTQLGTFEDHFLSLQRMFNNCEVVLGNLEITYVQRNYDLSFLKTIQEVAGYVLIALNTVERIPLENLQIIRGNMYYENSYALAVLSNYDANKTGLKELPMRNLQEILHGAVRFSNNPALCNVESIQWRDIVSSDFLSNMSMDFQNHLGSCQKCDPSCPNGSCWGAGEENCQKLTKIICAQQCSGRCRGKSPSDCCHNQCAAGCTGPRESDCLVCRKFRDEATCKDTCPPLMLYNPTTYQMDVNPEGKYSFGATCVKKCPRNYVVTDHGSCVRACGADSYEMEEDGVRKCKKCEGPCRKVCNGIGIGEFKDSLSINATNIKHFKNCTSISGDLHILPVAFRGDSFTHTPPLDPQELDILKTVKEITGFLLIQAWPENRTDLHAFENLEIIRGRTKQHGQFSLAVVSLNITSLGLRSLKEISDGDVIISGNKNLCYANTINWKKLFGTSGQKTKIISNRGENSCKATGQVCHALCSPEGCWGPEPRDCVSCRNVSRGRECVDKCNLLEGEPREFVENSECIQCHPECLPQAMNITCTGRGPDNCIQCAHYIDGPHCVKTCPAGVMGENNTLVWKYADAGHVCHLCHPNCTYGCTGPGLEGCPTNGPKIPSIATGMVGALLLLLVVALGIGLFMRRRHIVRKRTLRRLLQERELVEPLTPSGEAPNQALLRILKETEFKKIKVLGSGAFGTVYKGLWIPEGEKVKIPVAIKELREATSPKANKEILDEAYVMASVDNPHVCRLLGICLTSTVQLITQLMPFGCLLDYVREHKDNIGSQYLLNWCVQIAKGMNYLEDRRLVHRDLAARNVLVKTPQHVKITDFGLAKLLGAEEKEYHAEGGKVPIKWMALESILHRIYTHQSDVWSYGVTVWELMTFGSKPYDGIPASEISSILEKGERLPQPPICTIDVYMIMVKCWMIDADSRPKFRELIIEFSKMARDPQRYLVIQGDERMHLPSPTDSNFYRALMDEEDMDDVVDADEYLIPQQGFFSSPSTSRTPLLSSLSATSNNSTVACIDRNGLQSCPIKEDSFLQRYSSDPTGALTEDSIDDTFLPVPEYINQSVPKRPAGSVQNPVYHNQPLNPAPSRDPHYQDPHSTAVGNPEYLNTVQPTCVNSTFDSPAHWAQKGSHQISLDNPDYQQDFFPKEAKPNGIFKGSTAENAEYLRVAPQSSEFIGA
Endpoint Name: IC50 (nM)
Your answer should be a plain number; it is taken to be in nM.

[in] Fill in reported IC50 for this entry: `CC[C@@H](C)[C@H]1C=C[C@H]2[C@H](OC(=O)/C=C(\C)CC(=O)OC)[C@H](O)C[C@@H](C)[C@@H]2[C@@]1(C)C(=O)CCO`
[out] 14.7
